target: CD117 on Kasumi-1 cells and primary human CD34+ bone marrow cells (human, UniProt P10721 26-976); experiment: cell-based or functional assay
Sequence (P10721 26-976): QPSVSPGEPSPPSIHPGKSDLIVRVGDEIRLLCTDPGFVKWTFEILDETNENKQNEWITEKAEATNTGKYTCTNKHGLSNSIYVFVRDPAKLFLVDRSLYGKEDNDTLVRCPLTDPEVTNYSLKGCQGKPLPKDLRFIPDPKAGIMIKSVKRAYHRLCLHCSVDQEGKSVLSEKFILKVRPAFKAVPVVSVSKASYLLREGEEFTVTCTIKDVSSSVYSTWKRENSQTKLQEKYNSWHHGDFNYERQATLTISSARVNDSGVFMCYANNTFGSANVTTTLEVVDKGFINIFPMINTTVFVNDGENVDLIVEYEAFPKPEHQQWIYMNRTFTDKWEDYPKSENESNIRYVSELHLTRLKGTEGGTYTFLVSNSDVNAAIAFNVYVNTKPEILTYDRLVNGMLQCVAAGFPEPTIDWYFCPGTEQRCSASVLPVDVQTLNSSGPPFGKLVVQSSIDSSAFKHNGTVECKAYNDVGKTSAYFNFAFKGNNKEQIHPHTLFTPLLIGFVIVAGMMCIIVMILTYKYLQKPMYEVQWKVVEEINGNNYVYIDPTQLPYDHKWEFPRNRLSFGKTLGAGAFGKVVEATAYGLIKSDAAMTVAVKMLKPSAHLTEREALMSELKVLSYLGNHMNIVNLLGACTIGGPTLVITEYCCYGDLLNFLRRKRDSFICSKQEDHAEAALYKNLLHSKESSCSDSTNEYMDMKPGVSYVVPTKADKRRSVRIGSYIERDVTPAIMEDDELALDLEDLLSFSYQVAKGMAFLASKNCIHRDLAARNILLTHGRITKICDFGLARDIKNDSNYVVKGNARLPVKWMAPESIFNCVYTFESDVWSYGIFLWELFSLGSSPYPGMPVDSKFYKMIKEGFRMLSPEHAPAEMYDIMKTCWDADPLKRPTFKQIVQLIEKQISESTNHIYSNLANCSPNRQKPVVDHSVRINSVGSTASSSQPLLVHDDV
Endpoint: IC50, killing of primary human CD34+CD90+ cells (5 days, flow cytometry counts) (pM)
Give the quantity in pM, number only.

- Binder: "HC-245/LC-245 anti-CD117-ADC (conjugated to an amatoxin) (antibody, V domains shown, antibody conjugated to an amatoxin; site not stated) VH: EVQLVQSGAEVKKPGESLKISCKGSGYRFTTSWIGWVRQMPGKGLEWMGIIYPGDSDTRYSPSFQGQVTISADKSISTAYLQWSSLKASDTAMYYCARHGLGYNGYEGAFDIWGQGTLVTVSS VL: DIQMTQSPSSLSASVGDRVTITCRASQGIGSALAWYQQKPGKAPKLLIYDASTLESGVPSRFSGSGSGTDFTLTISSLQPEDFATYYCQQFNGYPLTFGQGTRLEIK"
  Test Value: 5.78

get_value(item= HC-77/LC-77 anti-CD117-ADC (conjugated to an amatoxin) (antibody, V domains shown, antibody conjugated to an amatoxin; site not stated) VH: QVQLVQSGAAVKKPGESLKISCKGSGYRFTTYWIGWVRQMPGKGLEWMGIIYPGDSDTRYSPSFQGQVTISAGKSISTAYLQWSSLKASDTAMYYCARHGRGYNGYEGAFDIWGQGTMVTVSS VL: DIQLTQSPSSLSASVGDRVTITCRASQGVISALAWYQQKPGKAPKLLIYDASILESGVPSRFSGSGSGTDFTLTISSLQPEDFATYYCQQFNSYPLTFGGGTKVEIK , readout=IC50, killing of primary human CD34+CD90+ cells (5 days, flow cytometry counts)) returns 6.94
